# Test system: Avena fatua (AVEFA)
# MEASUREMENT_NOTES: Test 1A glasshouse assay, pre-emergence herbicidal activity
# Format: in vivo
# CONDITION_LABEL: 312 h, 250 g/ha, 13 days after application, read-out: Pre-emergence herbicidal activity (% phytotoxicity) AVEFA
Would you kindly list inhibition at 250 g/ha for each of these compounds?
Give bare numbers, in %.

Consider the reported inhibition at 250 g/ha for these compounds:
1. Cc1cc(C)c(C2C(=O)CC(CCNC(=O)c3ccc(F)cc3)C2=O)c(C)c1 (centres unmarked) [Compound A19]; 50
2. Cc1cc(C)c(C2C(=O)CC(CCNC(=O)C3CCCCC3)C2=O)c(C)c1 (centres unmarked) [Compound A13]; 80
3. Cc1cc(C)c(C2C(=O)CC(CCNC(=O)c3ccccn3)C2=O)c(C)c1 (centres unmarked) [Compound A3]; 90
4. Cc1cc(C)c(C2C(=O)CC(CCNC(=O)c3ccc(Br)cn3)C2=O)c(C)c1 (racemic) [Compound A120]; 70
5. Cc1cc(C)c(C2C(=O)CC(CCNC(=O)c3cccc(F)n3)C2=O)c(C)c1 (racemic) [Compound A89]; 100
6. Cc1cc(C)c(C2C(=O)CC(CCNC(=O)c3c(Cl)nn(C)c3Cl)C2=O)c(C)c1 (centres unmarked) [Compound A159]; 80
7. Cc1cc(C)c(C2C(=O)CC(CCNC(=O)c3cc(Cl)ccn3)C2=O)c(C)c1 (racemic) [Compound A23]; 80

Attention now shifts to the item below.
Task: Item Cc1cc(-c2ccc(F)cc2)cc(C)c1C1C(=O)CC(CCNC(=O)c2ccccn2)C1=O (centres unmarked) [Compound A32] : provide inhibition at 250 g/ha
Result: 80

----------
Would you kindly list inhibition at 250 g/ha for each of these compounds?
# System: Avena fatua (AVEFA)
# MEASUREMENT_NOTES: Test 1A glasshouse assay, pre-emergence herbicidal activity
# Assay type: in vivo
# CONDITION_LABEL: 312 h, 250 g/ha, 13 days after application, read-out: Pre-emergence herbicidal activity (% phytotoxicity) AVEFA
One number for each entry, in %.

Consider the reported inhibition at 250 g/ha for these compounds:
1) CCc1cc(-n2cc(Cl)cn2)cc(C)c1C1C(=O)CC(CCNC(=O)c2ccccn2)C1=O (stereo not shown); 90
2) Cc1cc(C)c(C2C(=O)CC(CCNC(=O)C(C)(C)C)C2=O)c(C)c1 (stereo not shown); 70
3) Cc1cc(C)c(C2C(=O)CC(CCNC(=O)c3c(Cl)c(C)nn3C)C2=O)c(C)c1 (stereo not shown); 40

Attention now shifts to the item below.
Task: Item CC#Cc1cc(C)c(C2C(=O)CC(CCNC(=O)c3ccccn3)C2=O)c(C)c1 (stereo not shown) : provide inhibition at 250 g/ha
Result: 80

----------
# Test system: Poa annua (POAAN)
# MEASUREMENT_NOTES: Test 1B glasshouse assay, post-emergence herbicidal activity against grassy weeds
# Format: in vivo
# CONDITION_LABEL: 60 g/ha herbicide, 0 g/ha cloquintocet-mexyl, 14 DAA
Class definitions on Post-emergence herbicidal activity, percentage phytotoxicity, POAAN: bottom range (below 5%), center range (5% to below 50%), top range (50% or more)

Look over these answered cases.
1) Cc1cc(C)c(C2C(=O)CC(CCNC(=O)c3ccc(Br)cn3)C2=O)c(C)c1 (racemic); center range
2) CCc1cc(-n2cc(Cl)cn2)cc(C)c1C1C(=O)CC(CCNC(=O)c2ccccn2)C1=O (stereo not drawn); top range
3) Cc1cc(C)c(C2C(=O)C[C@H](CCNC(=O)c3cccc(F)n3)C2=O)c(C)c1 (stereo partly drawn); center range
4) Cc1cc(C)c(C2C(=O)CC(CCNC(=O)c3cc(Cl)ccn3)C2=O)c(C)c1 (racemic); bottom range
5) Cc1cc(-n2cc(Cl)cn2)cc(C)c1C1C(=O)CC(CCNC(=O)c2ccccn2)C1=O (racemic); top range
6) CCc1cc(-n2cc(Cl)cn2)cc(C)c1C1C(=O)C[C@H](CCNC(=O)c2ccccn2)C1=O (stereo partly drawn); center range

Attention now turns to another entry.
Task: Quick check: band for CCc1cc(-n2cc(Cl)cn2)cc(C)c1C1C(=O)C[C@@H](CCNC(=O)c2ccccn2)C1=O (stereo partly drawn)
Result: top range

----------
Would you kindly list Percentage Phytotoxicity Spring Barley “Harrington” for each of these compounds?
# System: Spring Barley “Harrington”
# MEASUREMENT_NOTES: Test 1B glasshouse assay, post-emergence herbicidal activity against cereal crops
# Assay type: in vivo
# CONDITION_LABEL: herbicide 60 g/ha, cloquintocet-mexyl 50 g/ha
Give bare numbers, in %.

Consider the reported Percentage Phytotoxicity Spring Barley “Harrington” for these compounds:
1) Cc1cc(C)c(C2C(=O)C[C@H](CCNC(=O)c3cccc(F)n3)C2=O)c(C)c1 (stereo partly drawn); 8
2) Cc1cc(C)c(C2C(=O)CC(CCNC(=O)c3cc(Cl)ccn3)C2=O)c(C)c1 (racemic); 5
3) Cc1cc(C)c(C2C(=O)CC(CCNC(=O)c3ccc(Br)cn3)C2=O)c(C)c1 (racemic); 38

Batch request: Percentage Phytotoxicity Spring Barley “Harrington” per item, same order as input.
1. Cc1cc(C)c(C2C(=O)C[C@H](CCNC(=O)c3cc(Cl)ccn3)C2=O)c(C)c1 (stereo partly drawn)
2. Cc1cc(C)c(C2C(=O)C[C@H](CCNC(=O)c3ccc(Br)cn3)C2=O)c(C)c1 (stereo partly drawn) [Compound A120B]
3. Cc1cc(C)c(C2C(=O)CC(CCNC(=O)c3cccc(F)n3)C2=O)c(C)c1 (racemic)
4. Cc1cc(C)c(C2C(=O)C[C@@H](CCNC(=O)c3cc(Cl)ccn3)C2=O)c(C)c1 (stereo partly drawn)
5. Cc1cc(C)c(C2C(=O)C[C@@H](CCNC(=O)c3ccc(Br)cn3)C2=O)c(C)c1 (stereo partly drawn) [Compound A120A]
6. Cc1cc(C)c(C2C(=O)C[C@@H](CCNC(=O)c3cccc(F)n3)C2=O)c(C)c1 (stereo partly drawn)

Result:
1: 0; 2: 23; 3: 43; 4: 8; 5: 73; 6: 73

----------
# Test system: Poa annua (POAAN)
# MEASUREMENT_NOTES: Test 1B glasshouse assay, post-emergence herbicidal activity against grassy weeds
# Format: in vivo
# CONDITION_LABEL: 30 g/ha herbicide, 50 g/ha cloquintocet-mexyl, 14 DAA
VALUE_TYPE: Post-emergence herbicidal activity, percentage phytotoxicity, POAAN

Consider the reported Post-emergence herbicidal activity, percentage phytotoxicity, POAAN for these compounds:
1. Cc1cc(C)c(C2C(=O)C[C@H](CCNC(=O)c3cc(Cl)ccn3)C2=O)c(C)c1 (stereo partly shown) [Compound A128]; 0%
2. Cc1cc(C)c(C2C(=O)C[C@H](CCNC(=O)c3cccc(F)n3)C2=O)c(C)c1 (stereo partly shown) [Compound A113]; 0%
3. CCc1cc(-n2cc(Cl)cn2)cc(C)c1C1C(=O)CC(CCNC(=O)c2ccccn2)C1=O (stereo not shown) [Compound A87]; 75%

Attention now shifts to the item below.
Task: Item CCc1cc(-n2cc(Cl)cn2)cc(C)c1C1C(=O)C[C@H](CCNC(=O)c2ccccn2)C1=O (stereo partly shown) [Compound A101] : provide Post-emergence herbicidal activity, percentage phytotoxicity, POAAN
Result: 5%

----------
# Test system: Alopecurus myosuroides (ALOMY)
# MEASUREMENT_NOTES: Test 1B glasshouse assay, post-emergence herbicidal activity against grassy weeds
# Type: in vivo
# CONDITION_LABEL: 45 g/ha herbicide, 50 g/ha cloquintocet-mexyl, 14 DAA
Would you kindly list Post-emergence herbicidal activity, percentage phytotoxicity, ALOMY for each of these molecules?
Numbers only, in %.

Batch request: Post-emergence herbicidal activity, percentage phytotoxicity, ALOMY per item, same order as input.
1. Cc1cc(C)c(C2C(=O)C[C@@H](CCNC(=O)c3cc(Cl)ccn3)C2=O)c(C)c1 (stereo partly shown)
2. Cc1cc(C)c(C2C(=O)CC(CCNC(=O)c3cccc(F)n3)C2=O)c(C)c1 (racemic)
3. Cc1cc(C)c(C2C(=O)C[C@H](CCNC(=O)c3cccc(F)n3)C2=O)c(C)c1 (stereo partly shown)
4. Cc1cc(C)c(C2C(=O)C[C@@H](CCNC(=O)c3ccc(Br)cn3)C2=O)c(C)c1 (stereo partly shown) [Compound A120A]
5. Cc1cc(C)c(C2C(=O)C[C@H](CCNC(=O)c3ccc(Br)cn3)C2=O)c(C)c1 (stereo partly shown) [Compound A120B]
6. Cc1cc(C)c(C2C(=O)C[C@@H](CCNC(=O)c3cccc(F)n3)C2=O)c(C)c1 (stereo partly shown)

Result:
[63, 97, 18, 88, 58, 97]

Batch request: Post-emergence herbicidal activity, percentage phytotoxicity, ALOMY per item, same order as input.
1. CCc1cc(-n2cc(Cl)cn2)cc(C)c1C1C(=O)C[C@@H](CCNC(=O)c2ccccn2)C1=O (stereo partly shown)
2. CCc1cc(-n2cc(Cl)cn2)cc(C)c1C1C(=O)C[C@H](CCNC(=O)c2ccccn2)C1=O (stereo partly shown)
3. Cc1cc(C)c(C2C(=O)CC(CCNC(=O)c3ccc(Br)cn3)C2=O)c(C)c1 (racemic)
4. Cc1cc(C)c(C2C(=O)C[C@H](CCNC(=O)c3cc(Cl)ccn3)C2=O)c(C)c1 (stereo partly shown)

Result:
1. 75
2. 43
3. 80
4. 25

Provenance of the data: patent US9808003B2
